Assay system Sodium-dependent noradrenaline transporter (Homo sapiens, UniProt P23975); read-out recorded as AC50. Further: assay procedure not described here.
State the answer as a number, implicitly in µM.

| compound | valueUnit | AC50 |
| --- | --- | --- |
| [H]/N=C(/N)N/C(=N/[H])NCCc1ccccc1 [PHENFORMIN] | µM | 18.3 |

Tell me reported AC50 for Clc1ccc(C(Cn2ccnc2)OCc2ccsc2Cl)c(Cl)c1 (stereo unspecified) [TIOCONAZOLE] , tested with Sodium-dependent noradrenaline transporter (Homo sapiens, UniProt P23975).
Sequence (P23975 whole entry): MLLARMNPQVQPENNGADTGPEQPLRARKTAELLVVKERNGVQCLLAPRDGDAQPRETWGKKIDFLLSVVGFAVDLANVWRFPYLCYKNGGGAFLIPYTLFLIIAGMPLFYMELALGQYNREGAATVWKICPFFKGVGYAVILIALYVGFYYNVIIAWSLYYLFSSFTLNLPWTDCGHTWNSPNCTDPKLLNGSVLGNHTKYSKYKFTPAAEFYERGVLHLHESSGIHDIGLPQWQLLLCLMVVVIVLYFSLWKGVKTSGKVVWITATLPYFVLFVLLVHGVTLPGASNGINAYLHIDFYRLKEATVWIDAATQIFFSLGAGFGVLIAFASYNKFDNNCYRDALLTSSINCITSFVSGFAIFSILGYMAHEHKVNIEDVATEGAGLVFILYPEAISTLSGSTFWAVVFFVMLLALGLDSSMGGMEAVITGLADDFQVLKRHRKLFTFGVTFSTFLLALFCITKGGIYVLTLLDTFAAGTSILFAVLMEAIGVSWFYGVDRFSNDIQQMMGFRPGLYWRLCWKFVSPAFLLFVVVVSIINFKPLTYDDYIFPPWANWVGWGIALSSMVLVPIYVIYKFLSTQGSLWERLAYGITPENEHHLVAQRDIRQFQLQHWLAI
20.7

GET /values?readout=AC50&system=Sodium-dependent noradrenaline transporter (Homo sapiens, UniProt P23975)&item= CCN(CC)CCNC(=O)c1c(C)[nH]c(/C=C2\C(=O)Nc3ccc(F)cc32)c1C [SUNITINIB]; further: assay procedure not described here
1.76
